# testProtocol: small-molecule microarray binders of probe aNog, primary screen, biochemical, biotinylated probe, 635/667 nm fluorescence (AID 1115);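 also: probe is biotinylated aNog protein used at 0.15 µg/mL for 1 h at 4 C; z-score combines 667 nm fluorescence of each spot with its signal to noise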
# condition: higher = more signal
Lab note: anything with composite z-score at or over -0.03 counts as Criterion met; the rest go in Criterion not met.

[[record]]
compound = "COC(=O)[C@@H]1CC[C@H](C)[C@@H](c2ccc(Br)cc2)N1"
class = "Criterion met"

[[record]]
compound = "CCOC(=O)CCN1C(=O)[C@H]2[C@H]3[C@H](O)[C@H](O)CC(=O)[C@@H]3CC[C@H]2C1=O"
class = "Criterion not met"

[[record]]
compound = "C[C@H]1C=CCC(=O)OC[C@H](C)C(=O)N2CCC[C@H]2C(=O)OC1"
class = "Criterion not met"

[[record]]
compound = "COCOc1ccc(Br)cc1C(=O)C=Cc1ccc2c(c1)OCO2"
class = "Criterion met"


Data request: Determine whether this compound has composite z-score no lower than -0.03: CCN1C(C)=C(C(=O)OC)[C@@H](c2ccccc2)N2C(=O)[C@](O)(C(=O)OC)CC(C(C)=O)=C12
Data returned: Criterion met

Data request: Tell me whether composite z-score is at least -0.03 here: C#CCCCON=C1C[C@@H](O)[C@@H](O)[C@@H]2[C@@H]3C(=O)N([C@@H](C)c4ccccc4)C(=O)[C@@H]3CC[C@@H]12
Data returned: Criterion met

Data request: Does COC(=O)[C@H](C)NC(=O)CCC1CC(OC(=O)NCCc2ccc(F)cc2)CC2(CCCC(COC(=O)NCC3CCCCC3)O2)O1 (some centres not stated) have a reported composite z-score of at least -0.03?
Data returned: Criterion met

Data request: Check if composite z-score >= -0.03 (inclusive). Item: CCOC(=O)CCN1C(=O)[C@H]2[C@H]3[C@H](O)[C@H](O)CC(=NOCC=C(C)CCC=C(C)C)[C@H]3CC[C@H]2C1=O
Data returned: Criterion not met

Data request: Can O=C1CCCC=C1C(O)C1CCCCC1 (configuration not stated) be said to have composite z-score at or above -0.03?
Data returned: Criterion not met

Data request: Does composite z-score meet or surpass -0.03 for CCc1cc2c(nc1CC)CCN(CCC(C)=NOCC[C@@H]1C=C[C@H](OC(C)=O)[C@@H](COC(C)=O)O1)C2 ?
Data returned: Criterion not met

Data request: Item CO[C@H]1COC(=O)CC=C[C@@H](C)COC(=O)[C@H]2CCCN2C(=O)CC=C[C@H]1C with composite z-score of -0.03 or above?
Data returned: Criterion not met

Data request: Can O=C(NN=C1C[C@@H](O)[C@@H](O)[C@@H]2[C@@H]3C(=O)N(Cc4ccc5c(c4)OCO5)C(=O)[C@@H]3CC[C@@H]12)OCc1ccccc1 be said to have composite z-score at or above -0.03?
Data returned: Criterion not met

Data request: Decide: composite z-score of CCOC(=O)CCN1C(=O)[C@H]2[C@@H]3C(=CC[C@H]2C1=O)C(=O)[C@H]1O[C@H]1[C@H]3O >= -0.03?
Data returned: Criterion not met

Data request: In plain terms: is recorded composite z-score at least -0.03 for CC(C)=NO[C@H](C)c1cn([C@@H]2COC[C@H]2O)nn1 ?
Data returned: Criterion not met

Data request: # bool: composite z-score of CC(CCN1CCc2nc(-c3ccccc3)c(-c3ccccc3)cc2C1)=NO[C@H](C)c1cn([C@H](CO)Cc2ccccc2)nn1 >= -0.03
Data returned: Criterion not met

Data request: Could you please find out whether CCOC(=O)[C@H](CC(C)C)NC(=O)CCC1CC(OC(=O)NCc2ccc3c(c2)OCO3)CC2(CCCC(COC(=O)NCc3ccccc3)O2)O1 (some centres not stated) has composite z-score that meets -0.03 or exceeds it?
Data returned: Criterion not met

Data request: Reported composite z-score reaches at least -0.03 for CC(C)CON=C1C[C@@H](O)[C@@H](O)[C@@H]2[C@@H]3C(=O)N(Cc4ccc5c(c4)OCO5)C(=O)[C@@H]3CC[C@@H]12 ?
Data returned: Criterion not met

Data request: Hello, I need to know if CC(=O)OC[C@H]1O[C@H](C#CCCc2ccccc2)C=C[C@@H]1OC(C)=O has measured composite z-score not below -0.03. Thanks!
Data returned: Criterion met
